# experimental_system: T1, Duffy antigen/receptor for chemokine (DARC) on erythrocytes (UniProt Q16570 1-336)
# T1 construct: whole, on cells
# T1 sequence (looked up): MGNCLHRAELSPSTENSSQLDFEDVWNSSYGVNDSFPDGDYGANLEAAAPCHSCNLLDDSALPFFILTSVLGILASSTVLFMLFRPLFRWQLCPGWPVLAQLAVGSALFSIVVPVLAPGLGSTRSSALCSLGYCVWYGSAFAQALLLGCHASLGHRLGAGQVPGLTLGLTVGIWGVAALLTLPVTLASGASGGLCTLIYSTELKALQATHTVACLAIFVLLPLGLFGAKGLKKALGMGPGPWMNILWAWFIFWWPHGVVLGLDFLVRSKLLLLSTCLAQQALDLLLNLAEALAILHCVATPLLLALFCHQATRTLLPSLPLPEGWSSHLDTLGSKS
# experiment_summary: displacement of 0.66 nM 125I-labeled TARC from 10^8 erythrocytes by unlabeled TARC, Scatchard analysis
observable: Kd (nM)
Please reply with the bare figure in nM and do not write the unit itself.

So what does the record say about Kd for human TARC (Thymus and Activation-Regulated Chemokine), mature secreted form, expressed in and purified from insect cells (ligand, also called hTARC; unlabeled TARC) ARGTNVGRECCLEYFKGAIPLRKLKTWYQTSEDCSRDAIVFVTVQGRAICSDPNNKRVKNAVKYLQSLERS ?
17
